Where do these numbers come from? They come from the supplement of paper PMC7877785.

EXPERIMENT_NOTES: self-splicing fitness, log relative to wild type (ln ratio); higher = more splicing; Tetrahymena group I intron in knt gene, E. coli kanamycin selection, DiMSum; sequences stand for … in CUCUCU…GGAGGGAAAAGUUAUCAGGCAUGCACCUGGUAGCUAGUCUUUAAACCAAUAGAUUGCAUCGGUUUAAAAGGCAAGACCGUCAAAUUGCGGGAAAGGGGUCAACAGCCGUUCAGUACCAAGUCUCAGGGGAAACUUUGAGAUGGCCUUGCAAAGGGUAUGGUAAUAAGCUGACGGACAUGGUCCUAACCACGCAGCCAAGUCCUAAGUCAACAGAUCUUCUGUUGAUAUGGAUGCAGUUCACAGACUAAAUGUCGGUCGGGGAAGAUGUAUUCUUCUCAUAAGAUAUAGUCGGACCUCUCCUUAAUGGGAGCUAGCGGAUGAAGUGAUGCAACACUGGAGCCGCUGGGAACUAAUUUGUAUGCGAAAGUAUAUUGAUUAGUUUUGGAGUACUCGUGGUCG;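 note: selection with 25 µg/mL kanamycin versus none on LB agar overnight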
ASSAY_CONDITIONS: 30 °C
Would you please tag the item label 1 when its self-splicing fitness (ln) is -2 or above, and label 0 when it is below?

SEQUENCE_TEXT | DISCRETE_LABEL
AGGUAGCAAUAUUACGCAAA | label 0
CACGAGCAAUAUUACGGCGA | label 0
AAGCAGCAAUAUUACGCAUC | label 0
ACUGAGCAAUAUUACGUUCU | label 1
UUUAAGCAAUAUUACGGAGU | label 0
UCUCAGCAAUAUUACGGUUA | label 1
CUAGAGCAAUAUUACGUCUG | label 1
ACGGAGCAAUAUUACGUGAU | label 0
GAGAAGCAAUAUUACGAAGA | label 1
CUCGAGCAAUAUUACGCAGU | label 0
ACAAAGCAAUAUUACGUAUU | label 1
AGUUAGCAAUAUUACGAAUG | label 0
CGGCAGCAAUAUUACGAUAC | label 0
GAGAAGCAAUAUUACGCCAU | label 0
AAAUAGCAAUAUUACGGGAU | label 0
GGCGAGCAAUAUUACGUACA | label 1
GGCCAGCAAUAUUACGAGUA | label 0
CCGGAGCAAUAUUACGGGUC | label 0
AGCAAGCAAUAUUACGUAGC | label 0
UCACAGCAAUAUUACGGGGU | label 0
UAGUAGCAAUAUUACGGGUC | label 0
AGAGAGCAAUAUUACGGAUA | label 0
ACGUAGCAAUAUUACGACAA | label 1
ACCUAGCAAUAUUACGGGCG | label 1
UGCCAGCAAUAUUACGGGUU | label 0
GAUGAGCAAUAUUACGAGGA | label 0
CGCUAGCAAUAUUACGUCCC | label 0
CUCCAGCAAUAUUACGCUGC | label 0
UACCAGCAAUAUUACGUGAU | label 1
CCAGAGCAAUAUUACGGGAU | label 0
GAAUAGCAAUAUUACGAAUU | label 1
GAACAGCAAUAUUACGAUAG | label 0
GCGAAGCAAUAUUACGGCUU | label 0
UCACAGCAAUAUUACGUCUC | label 0
AGUGAGCAAUAUUACGUUAG | label 0
GGCGAGCAAUAUUACGGAAA | label 1
AACUAGCAAUAUUACGCCGG | label 1
ACUUAGCAAUAUUACGCCCU | label 1
UACGAGCAAUAUUACGGAUA | label 0
AUAAAGCAAUAUUACGUCUC | label 1
CAAAAGCAAUAUUACGCCGG | label 1
GCGCAGCAAUAUUACGAGGG | label 0
CCUCAGCAAUAUUACGAUGG | label 0
GCCAAGCAAUAUUACGUCGG | label 0
AGGGAGCAAUAUUACGGUCU | label 1
UAAGAGCAAUAUUACGCAGG | label 0
GACUAGCAAUAUUACGAUUG | label 0
AUAUAGCAAUAUUACGGCAA | label 1
CAGAAGCAAUAUUACGACAA | label 0
CCCUAGCAAUAUUACGGGGA | label 0
UGUCAGCAAUAUUACGCCCU | label 1
UCUAAGCAAUAUUACGCGCU | label 0
AAGAAGCAAUAUUACGGUCU | label 1
